test system: T-47D breast; experiment: NCI-60 one-dose screen, 48 h (100 = growth as untreated, 0 = no growth, -100 = all killed); conditions: 10 µM
About 83,000 compounds went through this panel and 20% of them were active in at least one assay; those are over-represented in the sample as a whole.
The label is fulfilled for growth below 90% and not fulfilled for growth equal to or exceeding 90%.

// known answers, use as guide
- molecule: "COc1ccccc1/C=C/C(=O)/C=C/c1ccccc1O"
  discreteLabel: "fulfilled"
- molecule: "Oc1ccc2ccccc2c1C1NN=C(c2ccccc2)S1 (stereo unspecified)"
  discreteLabel: "fulfilled"
- molecule: "CC(C)(C)[Si](C)(C)OC1[C@@H](O[Si](C)(C)C(C)(C)C)[C@@H](CNC(=O)NC(=O)C(F)(F)F)O[C@H]1n1cnc2c(NC(=O)Nc3ccccc3)ncnc21 (stereo partly specified)"
  discreteLabel: "fulfilled"

Does `O=C(CCc1nnc2sc(/C=C\c3ccccc3)nn12)c1nc2ccccc2[nH]1` have growth strictly under 90%? fulfilled

Does `Clc1ccc2c(c1)C[C@H]1C[C@@H](c3cccs3)N2O1` have growth strictly under 90%? not fulfilled

Does `CN1CCN(CCCn2c3c(sc4ncccc43)c(=O)n3nnc(-c4ccccc4)c23)CC1` have growth strictly under 90%? not fulfilled

Does COc1ccc(OC)c(C2C(C#N)=C(N)Oc3cc(O)ccc32)c1 (stereo unspecified) have growth strictly under 90%? fulfilled

Does `COc1cc2oc(-c3ccc(O)cc3)cc(=O)c2c(O)c1I` have growth strictly under 90%? not fulfilled
